Task for the reader: assign each of the following compounds its reported LD50.
ASSAY_INFO: Acute toxicity, 50 percent lethal dose (LD50)
MEASUREMENT_CONTEXT: mouse, in vivo; acute; Table II, route not given; read-out: Acute Toxicity LD50
Give bare numbers, in mg/kg.

MOLECULE_SMILES | LD50 (mg/kg)
Cl.Clc1ccccc1N=Nc1ncc[nH]1 | 316

INPUT: Reported LD50, compound Cc1cccc(N=Nc2ncc[nH]2)c1 : ____
OUTPUT: 316

* * *

Can you tell me LD50 for the items I'm about to list?
ASSAY_INFO: Acute toxicity, 50 percent lethal dose (LD50)
MEASUREMENT_CONTEXT: mouse, in vivo; read-out: Acute Toxicity LD50
Give bare numbers, in mg/kg.

MOLECULE_SMILES | LD50 / mg/kg
c1ccc(N=Nc2ncc[nH]2)cc1 | 316
Clc1cccc(N=Nc2ncc[nH]2)c1 | 178

// switching to the query molecule
INPUT: Which measured LD50 value corresponds to N#Cc1ccccc1N=Nc1ncc[nH]1 ?
OUTPUT: 147

* * *

System: mice
ASSAY_INFO: Blocking of isolation-induced aggression in mice (antianxiety activity)
Assay type: in vivo
MEASUREMENT_CONTEXT: Mus musculus, ip; intraperitoneal, 30 min before pairing; doses 10.0, 21.5, 46.4 mg/kg
PROPERTY_MEASURED: ED50 (mg/kg)
Numbers only, in mg/kg.

Solved entries:
MOLECULE_SMILES | RESULT_UNITS | ED50
Clc1cccc(N=Nc2ncc[nH]2)c1 | mg/kg | 24.5
Clc1ccc(N=Nc2ncc[nH]2)cc1 | mg/kg | 4.3
c1ccc(N=Nc2ncc[nH]2)cc1 | mg/kg | 27.1
Fc1ccccc1N=Nc1ncc[nH]1 | mg/kg | 23.7
Cc1ccc(N=Nc2ncc[nH]2)c(Cl)c1 | mg/kg | 25.5

Hi there! I need ED50 for each item below, if you can.
1. N#Cc1ccccc1N=Nc1ncc[nH]1
2. Brc1ccccc1N=Nc1ncc[nH]1
3. O=[N+]([O-])c1ccccc1N=Nc1ncc[nH]1
4. Cc1ccc(N=Nc2ncc[nH]2)cc1
5. Cl.Clc1ccccc1N=Nc1ncc[nH]1
6. Cc1cccc(N=Nc2ncc[nH]2)c1
7. Ic1ccccc1N=Nc1ncc[nH]1

OUTPUT:
[12.6, 28.7, 27.1, 28.7, 13.3, 5.84, 31.6]

* * *

Test system: mice
ASSAY_INFO: Protection from reserpine-induced depression (ptosis) in mice (antidepressant activity)
Format: in vivo
MEASUREMENT_CONTEXT: Mus musculus, ip; intraperitoneal, 30 min before reserpine 2.5 mg/kg i.p., observed 45 min; read-out: Intraperitoneal ED50 (dose effective to protect 50 percent of the mice)
Lab note: compare ED50 with 20 mg/kg, writing yes if less and no if equal or more.

Solved cases (4 shown):
MOLECULE_SMILES | ASSIGNED_CLASS
Brc1ccccc1N=Nc1ncc[nH]1 | no
Clc1cccc(N=Nc2ncc[nH]2)c1 | no
Cc1ccccc1N=Nc1ncc[nH]1 | no
Cc1cccc(N=Nc2ncc[nH]2)c1 | no

Query compound follows.
INPUT: Would you kindly verify if ED50 of Cl.Clc1ccccc1N=Nc1ncc[nH]1 is strictly less than 20 mg/kg?
OUTPUT: yes

* * *

Tested on: mice
ASSAY_INFO: Protection from reserpine-induced depression (ptosis) in mice (antidepressant activity)
Type: in vivo
MEASUREMENT_CONTEXT: Mus musculus, ip; intraperitoneal, 30 min before reserpine 2.5 mg/kg i.p., observed 45 min; read-out: Intraperitoneal ED50 (dose effective to protect 50 percent of the mice)
Give measured ED50 for each item. Keep answers brief.

// below: answered compounds
MOLECULE_SMILES | PROPERTY_MEASURED | DATA_VALUE
c1ccc(N=Nc2ncc[nH]2)cc1 | ED50 | 20 mg/kg
Clc1ccccc1N=Nc1ncc[nH]1 | ED50 | 20 mg/kg

INPUT: Form field: reported ED50 of N#Cc1ccccc1N=Nc1ncc[nH]1
OUTPUT: 20 mg/kg
